- Test Target: human prominin-1 expressed in E. coli as a 6*HIS fusion protein (human) (UniProt O43490)
- Protocol Text: phage ELISA on plate-coated human prominin-1, HRP-conjugated anti-M13
Value Kind: A450
Numeric answer plus unit only.

Ask: GET /values?readout=A450&item= scFv clone No. 10, displayed on phage (scFv) scFv: AQAAELDIVLSQSPAIMSASPGEKVTISCSASSSVSYMYWYQQKPGSPPKPWIYRTSNLASGVPARFSGSGSGTSYSLTISSMEAEDAATYYCQQYHSYPPTFGAGTKLELKSSGGGGSGGGGGGSSRSSLEVKLVESGPELKKPGETVKISCKASGYTFTDYSMHWVNQAPGKGLKWMGWINTETGEPSYADDFKGRFAFSLETSASTAYLQINNLKNEDTATYFCATDCGDYFDYWGQGTTLTVSSAKTTPPSVTSGQAGQ
Result: 1.2 A450
